- assayTarget: HLA-B5801 (Homo sapiens, UniProt P01889, A329T/C349S/D201E/D98Y/E176V/E187L/E204Q/E69T/G107R/I218V/I90N/K202T/L105A/L119I/N104I/N87E/Q89R/Q94S/R106L/R155S/R180L/R86G/S101N/S121R/S35A/S48A/T118I/V127L/V306I/V36M/Y140S/Y91M)
- assayProcedure: Competitive peptide binding assay, CIR-B5801
- conditionDetails: HMy2.CIR-B5801 cells, reference Cy5-[…], class from inhibition at 5 and 15 μM, flow cytometry MFI; read-out: Binding affinity with HLA-B5801
Peptide text beside a SMILES is read from it.

compound | IC50
CC(C)C[C@H](NC(=O)[C@@H](N)CCC(N)=O)C(=O)N[C@H](C(=O)N1CCC[C@H]1C(=O)N[C@H](C(=O)N[C@@H](Cc1c[nH]c2ccccc12)C(=O)N[C@@H](CCCNC(=N)N)C(=O)N[C@H](C(=O)N[C@@H](Cc1ccc(O)cc1)C(=O)O)C(C)C)[C@@H](C)O)[C@@H](C)O [Epitope Y175] (H-QLTPTWRVY-OH; N-terminus and C-terminus assumed) | < 5 µM
CSCC[C@H](NC(=O)[C@H](C)NC(=O)[C@@H]1CCCN1C(=O)[C@H](CC(=O)O)NC(=O)[C@H](C)NC(=O)[C@H](C)NC(=O)[C@H](Cc1ccc(O)cc1)NC(=O)[C@@H](NC(=O)[C@@H](N)CC(C)C)C(C)C)C(=O)O [Epitope Y165] (H-LVYAADPAM-OH; N-terminus and C-terminus assumed) | > 15 µM
